Let's look at some binders and their measured Bioactivity relative to TL1A-0002.
# system: T1, recombinant human TL1A (human, UniProt O95150 71-251)
# T1 construct: homotrimer; biotinylated for SPR capture; the ELISA paragraphs say only 'recombinant TL1A'; also called TNFSF15
# T1 chain: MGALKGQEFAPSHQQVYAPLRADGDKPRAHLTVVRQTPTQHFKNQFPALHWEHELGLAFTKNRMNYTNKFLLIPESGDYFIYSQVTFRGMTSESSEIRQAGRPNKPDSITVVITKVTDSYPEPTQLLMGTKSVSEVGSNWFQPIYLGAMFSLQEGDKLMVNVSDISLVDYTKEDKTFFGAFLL
# method: competition ELISA vs bio-TL1A-0002
Numbers only; they are read as fold.

Look over these answered cases.
TL1A-0040 (antibody, IgG1, V domains shown, IgG1/kappa variant of TL1A-0002) VH: QVQLVQSGAEVKKPGASVKVSCKASGYDFTYYGISWVRQAPGQGLEWMGWISTYNGNTHYARMLQGRVTMTTDTSTRTAYMELRSLRSDDTAVYYCARENYYGSGDHRGGMDVWGQGTTVTVSS VL: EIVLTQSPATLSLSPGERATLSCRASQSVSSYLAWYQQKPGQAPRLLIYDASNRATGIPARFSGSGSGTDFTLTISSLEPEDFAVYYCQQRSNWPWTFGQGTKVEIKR; 1
TL1A-0085 (antibody, IgG1, V domains shown, IgG1/kappa variant of TL1A-0002) VH: QVQLVQSGAEVKKPGASVKVSCKASGYDFTYYGISWVRQAPGQGLEWMGWASTYNGNTHYAQKLQGRVTMTTDTSTRTAYMELRSLRSDDTAVYYCARENYYGSGAYRGGMDVWGQGTTVTVSS VL: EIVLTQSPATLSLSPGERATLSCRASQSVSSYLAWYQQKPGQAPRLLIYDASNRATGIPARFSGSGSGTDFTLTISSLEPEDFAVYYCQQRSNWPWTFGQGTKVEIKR; 1

For record TL1A-0091 (antibody, IgG1, V domains shown, IgG1/kappa variant of TL1A-0002) VH: QVQLVQSGAEVKKPGASVKVSCKASGYDFTYYGISWVRQAPGQGLEWMGWISTYNTVTHYAQKLQGRVTMTTDTSTRTAYMELRSLRSDDTAVYYCARENYYGSGAYRGGMDVWGQGTTVTVSS VL: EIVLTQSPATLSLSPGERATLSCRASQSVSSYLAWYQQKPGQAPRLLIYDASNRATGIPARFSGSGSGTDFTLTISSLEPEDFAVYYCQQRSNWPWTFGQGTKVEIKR the listed Bioactivity relative to TL1A-0002 is 1.2

The measurements presented in this section are drawn from patent US20240059799A1.
